Reported folding enthalpy values for the following sequences.
- assay protocol: folding enthalpy; higher = less favourable; fluorescence melt of hairpins on a sequencing array, two-state fit
- assay setup: sodium 0.088 M
Reply with just the number (in kcal/mol).

Use these answered entries as a reference point.
1. GATCTAATTCTAGATC ((((((....)))))) = -29.9
2. GATCCTAGGGAGGATC ((((((....)))))) = -29.6

Moving on to another sequence below.
Req: Find the measured folding enthalpy of GATCAGTTTTCTGATC ((((((....)))))) and report it.
Resp: -30.5

----------
- assay protocol: melting temperature; fluorescence melt of hairpins on a sequencing array, two-state fit, raised by 9.35 °C to match UV melts
- assay setup: sodium 0.088 M
measurement kind: Tm
Answer with the value and then the unit.

Use these answered entries as a reference point.
1) GTGTGCGAAAGCACCCAC ((((((....)))..))) = 39.3 °C
2) GATCATTATGATGATC ((((((....)))))) = 48.6 °C
3) GTACCCGGAAACGAGTAC ((((.((....)).)))) = 41.1 °C
4) GGTGTACGAAAGTAAACC (((.(((....))).))) = 48.6 °C
5) GGTCCTGGAAACAGAACC (((.(((....))).))) = 38.9 °C
6) GACTAGCCGAAAGGCGTC (((..(((....)))))) = 40.5 °C

Moving on to another sequence below.
Req: Find the measured Tm of GCCTACGAAAGTATCGGC ((((((....)))..))) and report it.
Resp: 40.6 °C

----------
- assay protocol: melting temperature; fluorescence melt of hairpins on a sequencing array, two-state fit, raised by 9.35 °C to match UV melts
- assay setup: sodium 0.088 M
measurement kind: Tm (°C)
Reply with just the number (in °C).

1. GGGGCTGGAAACGGCCTC (.(((.(....).))).) = 50.2
2. GACTCTGGAAACGGAGTC (((((.(....).))))) = 50.3
3. GATCTGTGACAGATC ((((((...)))))) = 48.8
4. GCATGCGAAAGCAGATGC ((((((....)))..))) = 51.4

Moving on to another sequence below.
Req: Find the measured Tm of CGAAGGAAACTTCG (((((....))))) and report it.
Resp: 48.6

----------
- assay protocol: melting temperature; fluorescence melt of hairpins on a sequencing array, two-state fit, raised by 9.35 °C to match UV melts
- assay setup: sodium 0.088 M
Grouping by measured Tm is done with the following cut points: LOW: < 50 °C; MID: ≥ 50 °C and < 60 °C; HIGH: ≥ 60 °C

1) GTAGGACGAAAGTCGTAC (((.(((....))).))) = MID
2) GGGTGCGAAAGCACGCCC ((((((....)))..))) = MID
3) GGCTCTGGAAACAGAACC ((.((((....)))).)) = LOW
4) GTGTCCGGAAACGGGTAC ((..(((....)))..)) = LOW
5) GAACGACGAAAGTCTTC (((.(((....)))))) = LOW
6) GTTATCGAAAGATACAAC ((((((....)))..))) = LOW

Req: Each sequence maps to one class by Tm. Which class for GCATATCGAAAGATTGC (((.(((....)))))) ?
Resp: LOW

Req: Each sequence maps to one class by Tm. Which class for GCTAATCGAAAGATAAGC (((.(((....))).))) ?
Resp: LOW

Req: Each sequence maps to one class by Tm. Which class for GCCTAGCGAAAGCACGGC (((..((....))..))) ?
Resp: MID

Req: Each sequence maps to one class by Tm. Which class for GATCTAGAAGTAGATC ((((((....)))))) ?
Resp: LOW
